assay: Peak concentration in blood after peroral administration to mice; assay type: ADME, organism-based; set-up: route oral; details: mouse, po
Record t whenever Cmax is at 9000 ng/mL or higher; record f when lower.

smilesentry=CC(C)(C)n1cc(C(=O)O)c(=O)c2cc(F)c(N3C[C@H]4C[C@@H]3CN4)nc21 classification=t
smilesentry=Cc1c(F)c(N2C[C@H]3C[C@@H]2[C@H](C)N3)nc2c1c(=O)c(C(=O)O)cn2C1CC1.Cl classification=f
smilesentry=C[C@@H]1[C@H]2C[C@H](CN2)N1c1nc2c(cc1F)c(=O)c(C(=O)O)cn2C(C)(C)C.Cl classification=f
smilesentry=O=C(O)c1cn(C2CC2)c2cc(N3CCNCC3)c(F)cc2c1=O classification=f
smilesentry=CN1C[C@H]2C[C@@H]1CN2c1nc2c(cc1F)c(=O)c(C(=O)O)cn2C(C)(C)C classification=t
smilesentry=C[C@H]1N[C@@H]2C[C@H]1N(c1nc3c(cc1F)c(=O)c(C(=O)O)cn3C(C)(C)C)C2.Cl classification=t

---

tested on: Mus musculus; assay: In vivo efficacy on systemic infections caused by Streptococcus pneumoniae A9585 in mice after intramuscular administration; assay type: functional; settings: im, read-out: PD50
measuredProperty: ED50 (mg/kg)

smilesentry=C[C@@H]1N[C@@H]2C[C@H]1N(c1nc3c(cc1F)c(=O)c(C(=O)O)cn3-c1ccc(F)cc1F)C2.Cl endpointunit=mg/kg qualifier=> valuereported=50
smilesentry=Cc1c(F)c(N2C[C@H]3C[C@@H]2CN3)nc2c1c(=O)c(C(=O)O)cn2C1CC1 endpointunit=mg/kg qualifier=> valuereported=25
smilesentry=O=C(O)c1cn(C2CC2)c2cc(N3CCNCC3)c(F)cc2c1=O endpointunit=mg/kg qualifier== valuereported=28.7
smilesentry=CC(C)(C)n1cc(C(=O)O)c(=O)c2cc(F)c(N3C[C@H]4C[C@@H]3CN4)nc21 endpointunit=mg/kg qualifier== valuereported=18.9
smilesentry=Cc1c(F)c(N2C[C@H]3C[C@@H]2[C@H](C)N3)nc2c1c(=O)c(C(=O)O)cn2C1CC1.Cl endpointunit=mg/kg qualifier== valuereported=18.9
smilesentry=C[C@@H]1N[C@@H]2C[C@H]1N(c1nc3c(cc1F)c(=O)c(C(=O)O)cn3C(C)(C)C)C2.Cl endpointunit=mg/kg qualifier== valuereported=14.4

---

assay: Peak concentration in blood after intravenous administration to mice; type: ADME, organism-based; parameters: route intravenous; conditions: mouse
measuredProperty: Cmax (ng/mL)

smilesentry=C[C@@H]1[C@H]2C[C@H](CN2)N1c1nc2c(cc1F)c(=O)c(C(=O)O)cn2C(C)(C)C.Cl valuereported=13000
smilesentry=C[C@@H]1N[C@@H]2C[C@H]1N(c1nc3c(cc1F)c(=O)c(C(=O)O)cn3C(C)(C)C)C2.Cl valuereported=22000
smilesentry=O=C(O)c1cn(C2CC2)c2cc(N3CCNCC3)c(F)cc2c1=O valuereported=22000
smilesentry=CN1C[C@H]2C[C@@H]1CN2c1nc2c(cc1F)c(=O)c(C(=O)O)cn2C(C)(C)C valuereported=14000

---

system: Mus musculus; test: Area under curve measured as conc vs time after intravenous administration to mice.; type: ADME, organism-based; parameters: unit not given here; details: in vivo
measuredProperty: AUC

smilesentry=C[C@@H]1[C@H]2C[C@H](CN2)N1c1nc2c(cc1F)c(=O)c(C(=O)O)cn2C(C)(C)C.Cl targetentity="Mus musculus" valuereported=10
smilesentry=Cc1c(F)c(N2C[C@H]3C[C@@H]2CN3)nc2c1c(=O)c(C(=O)O)cn2C1CC1 targetentity="Mus musculus" valuereported=40
smilesentry=CN1C[C@H]2C[C@@H]1CN2c1nc2c(cc1F)c(=O)c(C(=O)O)cn2C(C)(C)C targetentity="Mus musculus" valuereported=14
smilesentry=C[C@H]1[C@H]2C[C@H](CN2)N1c1nc2c(cc1F)c(=O)c(C(=O)O)cn2C(C)(C)C.Cl targetentity="Mus musculus" valuereported=22
